Target: ctdWDR91 (Homo sapiens)
Sequence (A4D1P6 392-747): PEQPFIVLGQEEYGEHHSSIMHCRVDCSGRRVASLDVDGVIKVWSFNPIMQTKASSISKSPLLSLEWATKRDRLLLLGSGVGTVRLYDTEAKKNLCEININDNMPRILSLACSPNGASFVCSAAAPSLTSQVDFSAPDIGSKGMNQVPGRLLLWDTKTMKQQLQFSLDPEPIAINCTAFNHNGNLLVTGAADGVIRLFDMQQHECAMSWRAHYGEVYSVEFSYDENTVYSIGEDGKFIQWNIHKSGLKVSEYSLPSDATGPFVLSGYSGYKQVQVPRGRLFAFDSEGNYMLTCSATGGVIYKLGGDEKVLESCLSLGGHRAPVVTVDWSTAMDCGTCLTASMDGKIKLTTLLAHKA
Assay: biochemical
pKd: −log10 of the molar value.
pKd: recorded values
attribute_measured: pKd

compound: O=C(NCC1CCN(c2ccc(F)cc2)C1)N1CC(O)(c2ccc(Cl)cc2)C1 (stereo not drawn) [DRGG002002a]
attribute_measured: pKd
result: < 4.35

compound: O=C(Nc1cccc2c1CN(C1CC1)C2)c1ccc(N2CCC(O)C2)cc1 (stereo not drawn) [DRGG001985a]
attribute_measured: pKd
result: < 4.35

compound: O=C(NC1(c2ccc(Cl)cc2)COC1)C1CCN(c2ccccc2)C1 (stereo not drawn) [DRGG001991a]
attribute_measured: pKd
result: < 4.35

compound: O=C(NOCc1ccc(Cl)cc1)c1ccc(N2CCC(O)C2)cc1 (stereo not drawn) [DRGG002010a]
attribute_measured: pKd
result: < 4.35

compound: O=C(NC1(c2ccc(Cl)cc2)COC1)c1ccc(CC2CC2)cc1 [DRGG001970a]
attribute_measured: pKd
result: < 4.35

compound: N#CC1(c2ccc(C(=O)NCC3CCN(c4ccc(Cl)cc4)C3)cc2)CC1 (stereo not drawn) [DRGG001993a]
attribute_measured: pKd
result: < 4.35

compound: O=C(NCC1CCN(c2ccc(Cl)cc2)C1)c1ccc(CN2CCOCC2)cc1 (stereo not drawn) [DRGG001983a]
attribute_measured: pKd
result: < 4.35

compound: O=C(NCCc1ccc(Cl)cc1)c1ccc(N2CCC(O)C2)cc1 (stereo not drawn) [DRGG001935a]
attribute_measured: pKd
result: < 4.35

compound: O=C(NC1(c2ccc(Cl)cc2)COC1)c1ccc2c(c1)NC(=O)C1CCCN21 (stereo not drawn) [DRGG002018a]
attribute_measured: pKd
result: < 4.35

compound: O=C(NC1CCN(c2ccc(Cl)cc2)C1)c1ccc(N2CCC(O)C2)cc1 (stereo not drawn) [DRGG001963a]
attribute_measured: pKd
result: < 4.35

compound: O=C(NCCOc1ccc(Cl)cc1)c1ccc(N2CCC(O)C2)cc1 (stereo not drawn) [DRGG002013a]
attribute_measured: pKd
result: < 4.35

compound: O=C(CNC(=O)c1ccc(F)cc1)NC1CCN(c2ccc(Cl)cc2)C1 (stereo not drawn) [DRGG001962a]
attribute_measured: pKd
result: < 4.35

compound: O=C(NC(CCO)c1ccc(Cl)cc1)c1ccc(N2CCC(O)C2)cc1 (stereo not drawn) [DRGG001961a]
attribute_measured: pKd
result: 4.85

compound: NC(=O)C1CCCN(c2ccc(C(=O)NC(c3ccc(Cl)cc3)C3CC3)cc2)C1 (stereo not drawn) [DRGG001957a]
attribute_measured: pKd
result: 4.80

compound: CC1CCN(c2ccc(C(=O)NC3(Cc4cccc(F)c4)CC3)cc2)C1 (stereo not drawn) [DRGG002009a]
attribute_measured: pKd
result: < 4.35

compound: O=C(NCC1CCN(c2ccc(Cl)cc2)C1)c1cccc(C2(O)COC2)c1 (stereo not drawn) [DRGG001996a]
attribute_measured: pKd
result: < 4.35

compound: O=C(NC1CC1)c1ccc(C(=O)NC2CCN(c3ccc(Cl)cc3)C2)cc1 (stereo not drawn) [DRGG002012a]
attribute_measured: pKd
result: < 4.35

compound: O=C(NCc1ccc2nsnc2c1)c1ccc(N2CCC(O)C2)cc1 (stereo not drawn) [DRGG002011a]
attribute_measured: pKd
result: 4.92

----------
Target: ctdWDR91 (Homo sapiens)
Assay: biochemical
pKd: −log10 of the molar value.
pKd: recorded values
attribute_measured: pKd

molecule: O=C(NC(CO)c1ccc(Cl)cc1)c1cccc2cn[nH]c12 (stereo not drawn) [MRGG044832a]
attribute_measured: pKd
result: < 4.35
//
molecule: CCCC(NC(=O)c1cc(O)c(O)cc1C)C(=O)N(C)C (stereo not drawn) [MRGG045321a]
attribute_measured: pKd
result: < 4.35
//
molecule: CNC(=O)c1cccnc1N1C[C@@H]2CN(C)C[C@]2(C)C1 [MRGG045301a]
attribute_measured: pKd
result: < 4.35

----------
Molecular target: ctdWDR91 (Homo sapiens)
Sequence (A4D1P6 392-747): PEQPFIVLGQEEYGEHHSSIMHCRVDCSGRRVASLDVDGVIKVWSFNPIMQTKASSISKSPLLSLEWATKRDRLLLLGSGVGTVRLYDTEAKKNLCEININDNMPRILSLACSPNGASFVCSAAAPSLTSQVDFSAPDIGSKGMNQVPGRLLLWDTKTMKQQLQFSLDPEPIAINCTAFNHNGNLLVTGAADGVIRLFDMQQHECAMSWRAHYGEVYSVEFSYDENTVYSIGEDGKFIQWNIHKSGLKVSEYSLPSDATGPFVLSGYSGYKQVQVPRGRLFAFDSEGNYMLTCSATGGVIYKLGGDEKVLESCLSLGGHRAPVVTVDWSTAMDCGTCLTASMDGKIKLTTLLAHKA
Test: biochemical
pKd: −log10 of the molar value.
pKd: recorded values
attribute_measured: pKd

compound: O=C(NCC1CCN(c2ccc(F)cc2)C1)c1ccc(N2CCC(O)C2)cc1 (stereo not drawn) [DRGG001938a]
result: < 4.35
//
compound: NC(=O)C1CCCN(c2ccc(C(=O)NC(CCO)c3ccc(Cl)cc3)cc2)C1 (stereo not drawn) [DRGG001997a]
result: 4.66
//
compound: C[C@@H](NC(=O)c1ccc(N2CCC(O)C2)cc1)c1ccc2c(c1)CCCC2 (stereo partly drawn) [DRGG001990a]
result: < 4.35
//
compound: CC1(c2ccc(C(=O)NC3CCN(c4ccc(F)cc4)C3)cc2)CC1 (stereo not drawn) [DRGG001994a]
result: < 4.35
//
compound: O=C(NCC1CCN(c2ccc(F)cc2)C1)NC1(c2ccc(Cl)cc2)CC1 (stereo not drawn) [DRGG002015a]
result: < 4.35
//
compound: O=C(NC1CCc2cc(Cl)ccc21)c1ccc(N2CCC(O)C2)cc1 (stereo not drawn) [DRGG001981a]
result: < 4.35
//
compound: O=C(NC1(Cc2ccccc2)COC1)c1ccc(N2CCC(O)C2)cc1 (stereo not drawn) [DRGG001952a]
result: < 4.35
//
compound: O=C(NC1(c2ccc(Cl)cc2)CC1)c1ccc(N2CCC(O)C2)cc1 (stereo not drawn) [DRGG001980a]
result: < 4.70
//
compound: O=C(NC1CCN(c2ccc(Cl)cc2)C1)c1ccc(CN2CCCC2=O)cc1 (stereo not drawn) [DRGG001992a]
result: < 4.35

----------
Target: UniProt A4D1P6
Assay: biochemical
pKd: −log10 of the molar value.
pKd: recorded values
attribute_measured: pKd

compound: COC(=O)c1ccccc1NC(=O)c1ccc2nnsc2c1 [MRGG044841a]
result: < 4.35
//
compound: CC1CN(C2CC2)CC1NCc1ccccc1-n1ccnc1 (stereo not shown) [MRGG044802a]
result: < 4.35
//
compound: O=C(NC1CC2(CCCC2)Oc2ccccc21)c1cnc2ccccn2c1=O (stereo not shown) [MRGG044783a]
result: < 4.35
//
compound: Cc1c(C#N)c2ccccc2n1CC(=O)N1CCc2ccccc2C1 [MRGG044779a]
result: < 4.35
//
compound: CNC(=O)c1ccc(NC2CC3CCC(C2)N3C)nc1 (stereo not shown) [MRGG045318a]
result: < 4.35
//
compound: Cc1cc(O)c(O)cc1C(=O)NC1(c2cccc(C#N)c2)CCC1 [MRGG045322a]
result: < 4.35
//
compound: c1ccc(CN2CCC3(CCN(C4CC4)C3)C2)cc1 (stereo not shown) [MRGG045337a]
result: < 4.35
//
compound: CC1CN(C2CC2)CC1NC(=O)c1cc2cc(Br)ccc2o1 (stereo not shown) [MRGG044827a]
result: < 4.35
//
compound: Cc1cc(N2CCC(COC(=O)C3COc4ccccc43)C2)ccc1F (stereo not shown) [MRGG045298a]
result: < 4.35
//
compound: CS(=O)(=O)N1CCC(CN(Cc2cccc(F)c2)C2CC2)C1 (stereo not shown) [MRGG045308a]
result: < 4.35
